- target.or.test.system: T1, CHC 1–574 L476D, L480D (UniProt Q00610 1-574, L476D | L480D)
- T1 construct: source: expressed and purified as the WT protein (modified pGEX vector; GST cleaved with TEV)
- T1 sequence (looked up): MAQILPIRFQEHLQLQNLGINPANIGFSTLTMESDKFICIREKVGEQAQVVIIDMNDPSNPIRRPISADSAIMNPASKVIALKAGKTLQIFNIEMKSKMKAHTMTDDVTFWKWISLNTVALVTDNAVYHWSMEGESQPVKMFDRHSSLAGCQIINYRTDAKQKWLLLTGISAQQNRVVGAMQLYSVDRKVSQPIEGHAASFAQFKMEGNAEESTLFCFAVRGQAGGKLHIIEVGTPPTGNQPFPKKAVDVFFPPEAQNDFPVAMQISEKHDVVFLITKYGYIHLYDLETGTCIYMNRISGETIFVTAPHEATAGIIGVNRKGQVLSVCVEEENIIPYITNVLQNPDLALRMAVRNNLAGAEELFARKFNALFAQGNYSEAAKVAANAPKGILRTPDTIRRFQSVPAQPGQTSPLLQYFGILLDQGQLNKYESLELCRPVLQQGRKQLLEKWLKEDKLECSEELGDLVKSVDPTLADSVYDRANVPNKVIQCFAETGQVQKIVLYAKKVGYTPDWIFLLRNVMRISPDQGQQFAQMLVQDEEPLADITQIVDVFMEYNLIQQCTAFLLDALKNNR
- procedure.text: fluorescence polarisation; CHC proteins serially diluted in 20 mM HEPES–NaOH pH 7.5, 200 mM NaCl, 5 mM DTT; 50 nM FAM‐labelled TACC3 peptide; 30 min at room temperature; read at 25°C
- assay.context: both partners purified
Non-standard residues stand in square brackets, D forms with d. No end group written: not given here. pS = N[C@@H](COP(=O)(O)O)C(=O)O; FAM = fluorescein label

binder: {FAM}-FKESALRKQ[pS]LYLKFDPLLRDS (peptide, UniProt Q9Y6A5 549-570, looked up, TACC3, human, aa549–570 (TACC3^CID); also called pTACC3^CID; FAM‐labelled pTACC3^CID; source: FAM‐labelled peptide (FAM‐TACC3 peptides: PPR, Cambridge; Almac, Craigavon)) [FAM‐TACC3 549–570 phosphorylated on S558 (FAM‐phospho‐TACC3^CID)]
Kd: > 300 µM

Sourced from paper PMC5897774
